Target: Disintegrin and metalloproteinase domain-containing protein 10 (Homo sapiens)
Sequence (O14672 whole entry): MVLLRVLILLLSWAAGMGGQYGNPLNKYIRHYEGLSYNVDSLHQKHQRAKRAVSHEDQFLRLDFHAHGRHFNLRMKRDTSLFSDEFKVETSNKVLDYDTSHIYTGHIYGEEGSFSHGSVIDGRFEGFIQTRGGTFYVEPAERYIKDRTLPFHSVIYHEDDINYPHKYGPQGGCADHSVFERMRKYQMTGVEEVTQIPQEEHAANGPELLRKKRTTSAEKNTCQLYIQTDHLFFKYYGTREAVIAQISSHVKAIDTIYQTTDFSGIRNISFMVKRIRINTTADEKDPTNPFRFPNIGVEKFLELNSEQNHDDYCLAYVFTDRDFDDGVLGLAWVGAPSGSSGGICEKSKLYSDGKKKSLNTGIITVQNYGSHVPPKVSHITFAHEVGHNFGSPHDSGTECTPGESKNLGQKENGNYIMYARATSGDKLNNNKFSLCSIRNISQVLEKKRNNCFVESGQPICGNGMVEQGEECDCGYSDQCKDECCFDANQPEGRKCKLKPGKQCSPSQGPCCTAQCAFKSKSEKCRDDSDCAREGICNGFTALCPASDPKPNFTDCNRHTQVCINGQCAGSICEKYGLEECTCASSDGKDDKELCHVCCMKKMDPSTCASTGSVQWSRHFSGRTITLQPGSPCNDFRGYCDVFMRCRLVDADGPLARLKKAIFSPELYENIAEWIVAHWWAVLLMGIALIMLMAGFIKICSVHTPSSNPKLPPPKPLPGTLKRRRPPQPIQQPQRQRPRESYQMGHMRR
Assay: ADAM10 inhibitors, peptide cleavage, dose response, biochemical, QFRET (AID 743254)
Exercise: state measured IC50 for each of the compounds provided.
Please format your answer as a value with the unit trailing.

[[record]]
compound = "N#Cc1c(Cl)nc(N=NCc2ccccc2)c(Cl)c1Cl"
study_system = "Disintegrin and metalloproteinase domain-containing protein 10 (Homo sapiens)"
experimental_endpoint = "IC50"
result_value = "69.5 µM"

[[record]]
compound = "CC(C)C1Nc2ccc(S(N)(=O)=O)cc2C2C=CCC21 (stereo not given)"
study_system = "Disintegrin and metalloproteinase domain-containing protein 10 (Homo sapiens)"
experimental_endpoint = "IC50"
result_value = "13.3 µM"

[[record]]
compound = "O=C1c2ccccc2C(=O)N1CCCc1nc(-c2ccncc2)no1"
study_system = "Disintegrin and metalloproteinase domain-containing protein 10 (Homo sapiens)"
experimental_endpoint = "IC50"
result_value = "37.6 µM"

[[record]]
compound = "COC(=O)c1ccc(-n2c(C)cc(CN=Nc3nc(C)cc(=O)[nH]3)c2C)cc1"
study_system = "Disintegrin and metalloproteinase domain-containing protein 10 (Homo sapiens)"
experimental_endpoint = "IC50"
result_value = "69.5 µM"


Problem: Any idea what its IC50 is? The compound is "CCCNc1c(F)c(F)c2c(C)c3ccccc3nc2c1F"
Solution: 69.5 µM

Cited source: BindingDB's records for doi:10.7270/Q2930RT9
